- Tested on: Acinetobacter baumannii
- METHOD DESCRIPTION: Antibacterial activity against Acinetobacter baumannii ATCC 19606 after 18 to 20 hrs by microbroth dilution method
- Format: functional
Where a SMILES comes first, the peptide text is derived from it.

>  <COMPOUND>
CC(C)C[C@H](NC(=O)[C@H](CC(C)C)NC(=O)[C@H](CCCNC(=N)N)NC(=O)CNC(=O)[C@H](CC(C)C)NC(=O)[C@H](CC(C)C)NC(=O)[C@H](CCCCN)NC(=O)[C@H](CO)NC(=O)[C@H](CC(C)C)NC(=O)[C@H](Cc1c[nH]c2ccccc12)NC(=O)[C@H](CCC(N)=O)NC(=O)[C@H](CC(C)C)NC(=O)[C@@H](N)CC(C)C)C(N)=O (H-LLQWLSKLLGRLL-NH2)

>  <MIC>
12 µM

$$$$
>  <COMPOUND>
CC[C@@H](C)[C@@H](NC(=O)[C@H](N)CC(C)C)C(=O)N[C@H](CCCNC(=N)N)C(=O)NCC(=O)N[C@H](CC(C)C)C(=O)N[C@H](Cc1ccccc1)C(=O)N[C@H](CCCCN)C(=O)N[C@H](CO)C(=O)N[C@H](Cc1ccccc1)C(=O)N[C@H](Cc1c[nH]c2ccccc12)C(=O)N[C@H](CCC(N)=O)C(=O)N[C@@H](C(=O)N[C@H](Cc1ccccc1)C(N)=O)C(C)C

>  <MIC>
6 µM

$$$$
>  <COMPOUND>
CC[C@@H](C)[C@@H](NC(=O)[C@@H](CCCNC(=N)N)NC(=O)CNC(=O)[C@@H](CC(C)C)NC(=O)[C@@H](Cc1ccccc1)NC(=O)[C@@H](CCCCN)NC(=O)[C@@H](CO)NC(=O)[C@@H](Cc1ccccc1)NC(=O)[C@@H](Cc1c[nH]c2ccccc12)NC(=O)[C@@H](CCC(N)=O)NC(=O)[C@H](NC(=O)[C@H](N)Cc1ccccc1)C(C)C)C(=O)N[C@H](CC(C)C)C(N)=O

>  <MIC>
6 µM

$$$$
>  <COMPOUND>
CC[C@H](C)[C@H](NC(=O)[C@H](CCCNC(=N)N)NC(=O)CNC(=O)[C@H](CC(C)C)NC(=O)[C@H](Cc1ccccc1)NC(=O)[C@H](CCCNC(=N)N)NC(=O)[C@H](CO)NC(=O)[C@H](Cc1ccccc1)NC(=O)[C@H](Cc1c[nH]c2ccccc12)NC(=O)[C@H](CCCNC(=N)N)NC(=O)[C@@H](NC(=O)[C@@H](N)Cc1ccccc1)C(C)C)C(=O)N[C@@H](CC(C)C)C(N)=O (H-FVRWFSRFLGRIL-NH2)

>  <MIC>
6 µM

$$$$
>  <COMPOUND>
CC[C@H](C)[C@H](NC(=O)[C@H](CCCNC(=N)N)NC(=O)CNC(=O)[C@H](CC(C)C)NC(=O)[C@H](Cc1ccccc1)NC(=O)[C@H](CCCCN)NC(=O)[C@H](CO)NC(=O)[C@H](Cc1ccccc1)NC(=O)[C@H](Cc1c[nH]c2ccccc12)NC(=O)[C@@H]1CCCN1C(=O)[C@@H](NC(=O)[C@@H](N)Cc1ccccc1)C(C)C)C(=O)N[C@@H](CC(C)C)C(N)=O (H-FVPWFSKFLGRIL-NH2)

>  <MIC>
6 µM

$$$$
>  <COMPOUND>
CC[C@H](C)[C@H](NC(=O)[C@H](CCCNC(=N)N)NC(=O)[C@@H]1CCCN1C(=O)[C@H](CC(C)C)NC(=O)[C@H](Cc1ccccc1)NC(=O)[C@H](CCCCN)NC(=O)[C@H](CO)NC(=O)[C@H](Cc1ccccc1)NC(=O)[C@H](Cc1c[nH]c2ccccc12)NC(=O)[C@@H]1CCCN1C(=O)[C@@H](NC(=O)[C@@H](N)Cc1ccccc1)C(C)C)C(=O)N[C@@H](CC(C)C)C(N)=O

>  <MIC>
48 µM

$$$$
